binders and their reported pEC50
Molecular target: T1, Human HM1.24 on RPMI 8226 multiple myeloma cells (UniProt Q10589 1-161)
T1 chain: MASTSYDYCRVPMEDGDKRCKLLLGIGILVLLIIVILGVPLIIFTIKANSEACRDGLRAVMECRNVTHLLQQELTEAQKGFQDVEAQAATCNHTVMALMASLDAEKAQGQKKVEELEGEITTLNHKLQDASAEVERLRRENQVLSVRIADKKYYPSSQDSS
Test: flow cytometry
Notebook: values listed as pEC50 are -log10 of the concentration (mol/L).

Ask | Record request: pEC50 value, item HM1.24_H1L4 (antibody, V domains shown) VH: QVQLVQSGAEVKKPGASVKVSCKASGYTFTPYWMQWVRQAPGQGLEWMGSIFPGDGDTRYSQSFQGQVTISADKSISTAYMELSRLRSDDTAVYYCARGLRRGGYYFDYWGQGTLVTVSS VL: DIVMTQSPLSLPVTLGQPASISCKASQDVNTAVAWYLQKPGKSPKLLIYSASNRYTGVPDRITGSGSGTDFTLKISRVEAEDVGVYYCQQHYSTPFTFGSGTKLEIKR
Reply | 8.72

In the following, a different binder is considered.
Ask | Record request: pEC50 value, item HM1.24_H0L0_IgG1_WT (antibody, V domains shown) VH: QVQLQQSGAELARPGASVKLSCKASGYTFTPYWMQWVKQRPGQGLEWIGSIFPGDGDTRYSQKFKGKATLTADKSSSTAYMQLSILAFEDSAVYYCARGLRRGGYYFDYWGQGTTLTVSS VL: DIVMTQSHKFMSTSVGDRVSITCKASQDVNTAVAWYQQKPGQSPKLLIYSASNRYTGVPDRITGSGSGTDFTFTISSVQAEDLALYYCQQHYSTPFTFGSGTKLEIKR
Reply | 8.61

All figures here come from patent US20080219974A1.
